Target: cloned human or rodent CNS receptors, channels, and transporters (PDSP panel) (Homo sapiens, UniProt P08173)
Construct: expressed in transfected cells
Sequence (P08173 whole entry): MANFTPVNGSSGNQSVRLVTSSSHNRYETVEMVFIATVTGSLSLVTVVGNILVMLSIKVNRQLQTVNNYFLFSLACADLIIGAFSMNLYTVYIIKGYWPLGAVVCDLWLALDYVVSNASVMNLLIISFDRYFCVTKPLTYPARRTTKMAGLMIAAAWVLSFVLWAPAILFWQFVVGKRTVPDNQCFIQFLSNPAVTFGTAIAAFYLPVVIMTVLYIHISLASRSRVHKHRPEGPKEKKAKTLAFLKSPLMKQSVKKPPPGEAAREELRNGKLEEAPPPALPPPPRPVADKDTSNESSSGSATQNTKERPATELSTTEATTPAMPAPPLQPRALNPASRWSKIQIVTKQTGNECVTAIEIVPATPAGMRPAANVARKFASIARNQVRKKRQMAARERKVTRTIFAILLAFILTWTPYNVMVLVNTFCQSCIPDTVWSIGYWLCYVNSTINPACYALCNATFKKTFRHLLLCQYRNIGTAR
Assay: PDSP GPCR panel primary binding assays at 10 μM
Settings: M4; primary assay, replicate 4
Experimental: GPCR panel: Screening against the receptors within the PDSP panel offers an assessment of off-target pharmacological activity at cloned human or rodent CNS receptors, channels, and transporters that could confound CNS-related phenotypes. A total of 46–47 primary binding assays were run in quadruplicate on these compounds at 10 μM, with follow-up secondary binding assays in 11-point dose-response in triplicate for select compounds versus select receptors. […]
property_measured: Inhibition 4 (%)
Output spec: scalar in %, unitless text.

The examples below pair each entry with its known result.
{"compound": "CNc1nc(C)nc(N[C@H]2CCC[C@@H](C(=O)NCc3ccc(C#N)cc3C(F)(F)F)C2)n1 [UNC10302679A, GSK2256294A]", "reading_unit": "%", "Inhibition 4": 37.78}
{"compound": "CC(=O)N1CCC(NC(=O)NC23CC4CC(CC(C4)C2)C3)CC1 [UNC10302683A, AR9281]", "reading_unit": "%", "Inhibition 4": 24.46}
{"compound": "CCC(=O)N1CCC(NC(=O)Nc2ccc(OC(F)(F)F)cc2)CC1 [UNC10302681A, TPPU]", "reading_unit": "%", "Inhibition 4": 51.34}

Read the next record carefully.
input: Look at this compound and give its reported Inhibition 4. O=C(NC1CC1)C(=O)C(Cc1ccccc1)NC(=O)[C@H]1CCC(=O)N1Cc1ccccc1 (stereo partly shown) [UNC10302676A, ABT-957 (Alicapistat)]
output: 20.1

###

The following compounds are listed with their measured Inhibition 1 values.
Target: cloned human or rodent CNS receptors, channels, and transporters (PDSP panel) (Homo sapiens, UniProt P08173)
Construct: expressed in transfected cells
Test: PDSP GPCR panel primary binding assays at 10 μM
Conditions: M4; primary assay, replicate 1
Output spec: scalar in %, unitless text.

The examples below pair each entry with its known result.
{"compound": "CCC(=O)N1CCC(NC(=O)Nc2ccc(OC(F)(F)F)cc2)CC1 [UNC10302681A, TPPU]", "Inhibition 1 [%]": 20.33}
{"compound": "O=C(NC1CC1)C(=O)C(Cc1ccccc1)NC(=O)[C@H]1CCC(=O)N1Cc1ccccc1 (stereo partly shown) [UNC10302676A, ABT-957 (Alicapistat)]", "Inhibition 1 [%]": -9.99}
{"compound": "CNc1nc(C)nc(N[C@H]2CCC[C@@H](C(=O)NCc3ccc(C#N)cc3C(F)(F)F)C2)n1 [UNC10302679A, GSK2256294A]", "Inhibition 1 [%]": 10.45}

Read the next record carefully.
input: Look at this compound and give its reported Inhibition 1. CC(=O)N1CCC(NC(=O)NC23CC4CC(CC(C4)C2)C3)CC1 [UNC10302683A, AR9281]
output: 4.48

###

Target: cloned human or rodent CNS receptors, channels, and transporters (PDSP panel) (Homo sapiens)
Construct: expressed in transfected cells
Assay: PDSP GPCR panel primary binding assays at 10 μM
Conditions: Receptor Alpha1D; primary assay, 10 μM
property_measured: Inhibition 2 (%)
Output spec: scalar in %, unitless text.

{"compound": "O=c1oc2ccccc2cc1-c1cn2cc(Cc3ccc(F)cc3)sc2n1 [UNC10302680A, iMDK]", "Inhibition 2 / %": -9.56}
{"compound": "Cl.NC(=O)c1cnc(N[C@@H]2CCCC[C@@H]2N)nc1Nc1cccc(-n2nccn2)c1 [UNC10302682A, P505-15 (PRT06207 HCl)]", "Inhibition 2 / %": 13.18}
{"compound": "CCCCNc1ncc2c(-c3ccc(CN4CCN(C)CC4)cc3)cn([C@H]3CC[C@H](O)CC3)c2n1 [UNC2025C, UNC2025]", "Inhibition 2 / %": 57.37}

input: Look at this compound and give its reported Inhibition 2. c1cn2cc(-c3ccc4cn[nH]c4c3)nc(Nc3ccc(N4CCOCC4)cc3)c2n1 [UNC10302678A, Entospletinib (GS-9973)]
output: -12.54

###

The following compounds are listed with their measured Inhibition 1 values.
Biological target: cloned human or rodent CNS receptors, channels, and transporters (PDSP panel) (Homo sapiens)
Construct: expressed in transfected cells
Assay: PDSP GPCR panel primary binding assays at 10 μM
Settings: Receptor KOR; primary assay, 10 μM
Output spec: scalar in %, unitless text.

The examples below pair each entry with its known result.
{"compound": "O=c1oc2ccccc2cc1-c1cn2cc(Cc3ccc(F)cc3)sc2n1 [UNC10302680A, iMDK]", "obs_value": -23.4}
{"compound": "CCCCNc1ncc2c(-c3ccc(CN4CCN(C)CC4)cc3)cn([C@H]3CC[C@H](O)CC3)c2n1 [UNC2025C, UNC2025]", "obs_value": -17.91}
{"compound": "c1cn2cc(-c3ccc4cn[nH]c4c3)nc(Nc3ccc(N4CCOCC4)cc3)c2n1 [UNC10302678A, Entospletinib (GS-9973)]", "obs_value": -28.1}

Read the next record carefully.
input: Look at this compound and give its reported Inhibition 1. Cl.NC(=O)c1cnc(N[C@@H]2CCCC[C@@H]2N)nc1Nc1cccc(-n2nccn2)c1 [UNC10302682A, P505-15 (PRT06207 HCl)]
output: -6.83

###

Target: cloned human or rodent CNS receptors, channels, and transporters (PDSP panel) (Homo sapiens, UniProt P20309)
Construct: expressed in transfected cells
Sequence (P20309 whole entry): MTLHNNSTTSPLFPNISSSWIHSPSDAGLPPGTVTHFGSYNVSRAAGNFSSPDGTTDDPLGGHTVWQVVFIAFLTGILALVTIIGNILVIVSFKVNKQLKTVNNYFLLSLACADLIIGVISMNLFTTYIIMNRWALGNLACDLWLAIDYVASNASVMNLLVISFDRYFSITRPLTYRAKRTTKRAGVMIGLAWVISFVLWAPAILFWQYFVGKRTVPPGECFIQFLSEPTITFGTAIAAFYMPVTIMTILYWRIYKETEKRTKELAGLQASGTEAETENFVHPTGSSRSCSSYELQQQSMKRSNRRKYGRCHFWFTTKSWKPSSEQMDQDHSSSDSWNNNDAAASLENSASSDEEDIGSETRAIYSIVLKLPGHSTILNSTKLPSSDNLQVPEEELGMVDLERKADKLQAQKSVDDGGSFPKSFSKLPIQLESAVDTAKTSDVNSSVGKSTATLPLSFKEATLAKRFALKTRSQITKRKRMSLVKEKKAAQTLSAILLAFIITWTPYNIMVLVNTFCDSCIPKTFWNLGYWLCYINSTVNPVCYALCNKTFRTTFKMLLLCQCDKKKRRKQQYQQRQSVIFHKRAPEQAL
Experiment: PDSP GPCR panel primary binding assays at 10 μM
Details: Receptor M3; primary assay, 10 μM
property_measured: Inhibition 2 (%)
Output spec: scalar in %, unitless text.

The examples below pair each entry with its known result.
{"molecule": "c1cn2cc(-c3ccc4cn[nH]c4c3)nc(Nc3ccc(N4CCOCC4)cc3)c2n1 [UNC10302678A, Entospletinib (GS-9973)]", "Inhibition 2 / %": 23.97}
{"molecule": "O=c1oc2ccccc2cc1-c1cn2cc(Cc3ccc(F)cc3)sc2n1 [UNC10302680A, iMDK]", "Inhibition 2 / %": 60.54}
{"molecule": "CCCCNc1ncc2c(-c3ccc(CN4CCN(C)CC4)cc3)cn([C@H]3CC[C@H](O)CC3)c2n1 [UNC2025C, UNC2025]", "Inhibition 2 / %": -5.9}

Read the next record carefully.
input: Look at this molecule and give its reported Inhibition 2. Cl.NC(=O)c1cnc(N[C@@H]2CCCC[C@@H]2N)nc1Nc1cccc(-n2nccn2)c1 [UNC10302682A, P505-15 (PRT06207 HCl)]
output: 2.32

###

The following compounds are listed with their measured Inhibition 1 values.
Biological target: cloned human or rodent CNS receptors, channels, and transporters (PDSP panel) (Homo sapiens, UniProt P21917)
Construct: expressed in transfected cells
Sequence (P21917 whole entry): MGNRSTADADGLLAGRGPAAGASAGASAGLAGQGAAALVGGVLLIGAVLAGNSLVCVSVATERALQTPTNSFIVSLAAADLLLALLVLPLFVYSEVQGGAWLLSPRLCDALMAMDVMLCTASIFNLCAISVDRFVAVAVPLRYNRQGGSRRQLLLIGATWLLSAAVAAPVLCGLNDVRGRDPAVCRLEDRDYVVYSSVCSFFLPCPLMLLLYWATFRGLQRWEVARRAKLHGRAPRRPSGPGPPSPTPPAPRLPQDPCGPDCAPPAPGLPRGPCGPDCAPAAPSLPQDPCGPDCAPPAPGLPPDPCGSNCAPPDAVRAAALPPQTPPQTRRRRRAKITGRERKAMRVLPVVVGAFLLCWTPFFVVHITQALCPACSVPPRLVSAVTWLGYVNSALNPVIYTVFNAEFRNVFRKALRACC
Test: PDSP GPCR panel primary binding assays at 10 μM
Conditions: D4; primary assay, replicate 1
Output spec: scalar in %, unitless text.

The examples below pair each entry with its known result.
{"compound": "CNc1nc(C)nc(N[C@H]2CCC[C@@H](C(=O)NCc3ccc(C#N)cc3C(F)(F)F)C2)n1 [UNC10302679A, GSK2256294A]", "reading_unit": "%", "Inhibition 1": 2.1}
{"compound": "CC(=O)N1CCC(NC(=O)NC23CC4CC(CC(C4)C2)C3)CC1 [UNC10302683A, AR9281]", "reading_unit": "%", "Inhibition 1": 1.15}
{"compound": "O=C(NC1CC1)C(=O)C(Cc1ccccc1)NC(=O)[C@H]1CCC(=O)N1Cc1ccccc1 (stereo partly shown) [UNC10302676A, ABT-957 (Alicapistat)]", "reading_unit": "%", "Inhibition 1": 5.07}

Read the next record carefully.
input: Look at this compound and give its reported Inhibition 1. CCC(=O)N1CCC(NC(=O)Nc2ccc(OC(F)(F)F)cc2)CC1 [UNC10302681A, TPPU]
output: 5.07

###

Biological target: cloned human or rodent CNS receptors, channels, and transporters (PDSP panel) (Homo sapiens, UniProt P21917)
Construct: expressed in transfected cells
Assay: PDSP GPCR panel primary binding assays at 10 μM
Details: D4; primary assay, replicate 4
property_measured: Inhibition 4 (%)
Output spec: scalar in %, unitless text.

The examples below pair each entry with its known result.
{"compound": "CC(=O)N1CCC(NC(=O)NC23CC4CC(CC(C4)C2)C3)CC1 [UNC10302683A, AR9281]", "obs_value": 3.35}
{"compound": "CCC(=O)N1CCC(NC(=O)Nc2ccc(OC(F)(F)F)cc2)CC1 [UNC10302681A, TPPU]", "obs_value": 15.2}
{"compound": "O=C(NC1CC1)C(=O)C(Cc1ccccc1)NC(=O)[C@H]1CCC(=O)N1Cc1ccccc1 (stereo partly shown) [UNC10302676A, ABT-957 (Alicapistat)]", "obs_value": 0.19}

Read the next record carefully.
input: Look at this compound and give its reported Inhibition 4. CNc1nc(C)nc(N[C@H]2CCC[C@@H](C(=O)NCc3ccc(C#N)cc3C(F)(F)F)C2)n1 [UNC10302679A, GSK2256294A]
output: 8.13
